assay: P. aeruginosa biofilm formation inhibitors, primary screen, PAO1 strain, BacTiter-Glo luminescence, LB-PBS (AID 1144); conditions: 12 h, higher = more signal
Would you please tag the item YES when its z-score is -0.3 or above, and NO when it is below?

Compound | Group label
CO[C@@H]1COC(=O)CCC[C@@H](C)[C@H](OC)COC(=O)CCC[C@H]1C | YES
O=C1C[C@@H](O)[C@@H](O)[C@@H]2[C@@H]3C(=O)N(c4ccc(F)cc4F)C(=O)[C@@H]3CC[C@@H]12 | NO
CCOC(=O)C1=CCC(c2cc3ccccc3[nH]2)NC1 (stereo not given) | YES
CC(C)=NOCc1ccc(-c2cc(-c3ccccc3)no2)cc1 | YES
CC(CCN1CCc2nc(-c3ccccc3)c(-c3ccccc3)cc2C1)=NO[C@@H](C)c1cn([C@H](CO)Cc2ccccc2)nn1 | NO

* * *

assay: anti-His antibody binders, primary screen, artefact control for SMM control protein annotation, biochemical, small-molecule microarray, 635 nm fluorescence (AID 1128); details: anti-His Alexa647 antibody binding, higher = more signal;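 further: score merges feature fluorescence with signal-to-noise for each printed compound spot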
Measured composite z-score by item
Observed property: composite z-score

Compound | Observed property | Readout value
[N-]=[N+]=NCc1ccccc1C[C@]1(C(=O)NCc2ccccc2)N=C(c2ccc(OCCCO)cc2)O[C@H]1c1ccccc1N=[N+]=[N-] | composite z-score | 1.99
C=CCOC(=O)[C@H]1[C@@H]2C(=O)O[C@@H](c3ccccc3)[C@@H](c3ccccc3)N2[C@@H](c2ccc(OCCOC(=O)[C@H]3C[C@H]4C(=O)N5CCC[C@H]5C(=O)N4[C@H]3c3cccc(OCCO)c3)cc2)[C@]12C(=O)Nc1ccc(I)cc12 | composite z-score | 3.59
C#CCCCON=C1C[C@@H](O)[C@@H](O)[C@@H]2[C@@H]3C(=O)N(CCC(=O)OCC)C(=O)[C@@H]3CC[C@@H]12 | composite z-score | -0.264
O=C1O[C@@H](c2ccccc2)[C@@H](c2ccccc2)N2[C@@H](c3ccc(OCCO)cc3)[C@]3(C(=O)Nc4ccccc43)[C@@H](C(=O)N3CCN(c4ncccn4)CC3)[C@H]12 | composite z-score | 1.08
O=C1CCCC2OC12C(O)CCc1ccccc1 (stereo unspecified) | composite z-score | 0.259
CC(C)[C@@H](OCc1ccccc1)[C@H](C)C=NOC[C@@H](C)[C@H](OCc1ccccc1)C(C)C | composite z-score | 0.0377

* * *

tested on: Noggin (protein binding on small-molecule microarray); experiment: Noggin binders on small-molecule microarray, primary screen, biochemical, 635/667 nm fluorescence (AID 1095); conditions: 635 nm fluorescence, higher = more signal;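 further: score merges 667 nm feature fluorescence with signal to noise over triplicate slides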
Below is a list of entries, each paired with its recorded composite z-score value.

Structure smiles | composite z-score
COC(=O)[C@H]1COC(c2ccc(OCCCO)cc2)=N1 | -0.37
Cc1ccc(S[C@]2(C(=O)NCC(F)(F)F)CC(=O)N(Cc3ccccc3Cl)[C@@H]2c2ccc(CO)cc2I)cc1 | -1.07
Cn1c(=O)n2n(c1=O)[C@H]1[C@H](O)[C@@H]3O[C@@H]3C(=NOC[C@@H](O)COCc3ccco3)[C@H]1CC2 | 0.426
COCCCNC(=O)[C@@]1(C)c2ccccc2C(=O)N(Cc2ccc(OC(F)(F)F)cc2)[C@H]1c1ccc(CO)cc1 | -0.598

src = PubChem BioAssay
